Test: Cytotoxicity against African green monkey Vero cells after 3 days by spectrophotometry based MTS/PMS assay
Type: cell-based
Details: chlorocebus sabaeus
reported property: CC50 at 72 h

Some solved entries appear below for comparison.
CC(=O)Nc1cccc(-n2cnc3c(Cl)ncnc32)c1 :: > 174 µM
Cc1nc(Cl)c2ncn(-c3cccc(N4CCOC4=O)c3)c2n1 :: > 200 µM
CC(=O)Nc1cccc(-n2cnc3c(Cl)nc(C)nc32)c1 :: > 200 µM
CCOc1ncnc2c1ncn2-c1cccc(NCCO)c1 :: > 200 µM
CCN(CC)c1cccc(-n2cnc3c(Cl)ncnc32)c1 :: > 100 µM

Q: Need CC50 at 72 h of CN(C)c1cccc(-n2cnc3c(Cl)ncnc32)c1 , thanks.
A: > 100 µM

* * *

Experiment: Cytotoxicity against African green monkey Vero cells after 3 days by spectrophotometry based MTS/PMS assay
Assay type: cell-based
Conditions: chlorocebus sabaeus
reported property: CC50 at 72 h

CCN(C(C)=O)c1cccc(-n2cnc3c(Cl)nc(C)nc32)c1 :: > 200 µM

In the following, a different compound is considered.
Q: Need CC50 at 72 h of Cc1nc(Cl)c2ncn(-c3cccc(C(C)(C)O)c3)c2n1 , thanks.
A: > 100 µM

* * *

Experiment: Cytotoxicity against African green monkey Vero cells after 3 days by spectrophotometry based MTS/PMS assay
Type: cell-based
Conditions: chlorocebus sabaeus
reported property: CC50 at 72 h

Some solved entries appear below for comparison.
Fc1cccc(F)c1[C@@H]1SCc2nc3cc(C(F)(F)F)ccc3n21 :: > 100 µM
Cc1nc(Cl)c2ncn(-c3ccc(N(C)C)cc3)c2n1 :: > 100 µM
Cc1nc(Cl)c2[nH]c(=O)n(-c3cccc(N(C)C)c3)c2n1 :: > 100 µM

Q: Need CC50 at 72 h of CC(=O)c1cccc(-n2c(=O)[nH]c3c(Cl)nc(C)nc32)c1 , thanks.
A: > 100 µM

Q: Need CC50 at 72 h of Cc1nc(Cl)c2c(n1)n(-c1cccc(N(C)C)c1)c(=O)n2C , thanks.
A: > 200 µM

Q: Need CC50 at 72 h of CC(=O)N(CC1CC1)c1cccc(-n2cnc3c(Cl)nc(C)nc32)c1 , thanks.
A: > 200 µM

Q: Need CC50 at 72 h of Cc1nc(Cl)c2[nH]c(=O)n(-c3cccc(N4CCOC4=O)c3)c2n1 , thanks.
A: > 200 µM

* * *

Assay: Cytotoxicity against African green monkey Vero cells after 3 days by spectrophotometry based MTS/PMS assay
Assay type: cell-based
Conditions: chlorocebus sabaeus
Known CC50 at 72 h of a selection of compounds

CCN(CC)c1cccc(-n2cnc3c(Cl)nc(C)nc32)c1 :: > 100 µM
Cc1nc(Cl)c2ncn(-c3cccc(N(C)C)c3)c2n1 :: > 100 µM

Q: Need CC50 at 72 h of O=C1OCCN1c1cccc(-n2c(=O)[nH]c3c(Cl)ncnc32)c1 , thanks.
A: > 200 µM

Q: Need CC50 at 72 h of CN(C)c1ccc(-n2cnc3c(Cl)ncnc32)cc1 , thanks.
A: > 100 µM

Q: Need CC50 at 72 h of Cc1nc(Cl)c2nc(OC(=O)Oc3ccccc3)n(-c3cccc(N(C)C)c3)c2n1 , thanks.
A: 75.9 µM

* * *

Known CC50 at 72 h of a selection of compounds
Test: Cytotoxicity against African green monkey Vero cells after 3 days by spectrophotometry based MTS/PMS assay
Assay type: cell-based
Details: chlorocebus sabaeus
Expressed in µM, but write only the number.

CCOC(=O)Oc1nc2c(Cl)nc(C)nc2n1-c1cccc(N(C)C)c1 :: 131

In the following, a different compound is considered.
Q: Need CC50 at 72 h of CC(=O)N(C)c1cccc(-n2cnc3c(Cl)nc(C)nc32)c1 , thanks.
A: 307
